Below, each entry is listed with its recorded chromatographic logP.
# assay_notes: Log P by HPLC on reversed phase columns, acidic range (EEC directive 79/831 Annex V.A8)
# Assay type: physicochemical
Lab note: record just the number, no unit beside it.

O=C(NCC(F)(F)c1ncc(-n2cc(C(F)(F)F)cn2)cc1Cl)c1ccccc1C(F)(F)F [Example 3] ... 3.62
O=C(NCC(F)(F)c1ncc(-n2ccc(C(F)(F)F)n2)cc1Cl)c1ccccc1C(F)(F)F [Example 11] ... 3.63
O=C(NCC(F)(F)c1ncc(-n2cc(Cl)cn2)cc1Cl)c1ccccc1C(F)(F)F [Example 12] ... 3.5
O=C(NCC(F)(F)c1ncc(-n2ccc(C(F)(F)F)n2)cc1Cl)c1nccnc1C(F)(F)F [Example 8] ... 3.49

Input line: # query: chromatographic logP of entry Cn1c(C(F)(F)F)nn(-c2cnc(C(F)(F)CNC(=O)c3ccccc3C(F)(F)F)c(Cl)c2)c1=O [Example 6]
Output line: 3.32
